Exercise: state measured CI80 on clinical strains of Candida for each of the compounds provided.
test system: Candida krusei (4 strains); assay: Antifungal activity in vitro on clinical strains of Candida: krusei (4 strains); type: cell-based; details: strain CK980003 (Candida krusei)

OC(Cn1ccnc1)(Cn1ccc2ccccc21)c1ccc(Br)cc1 (stereo not drawn)
92.27 ± 3.90 µM
OC(Cn1ccnc1)(Cn1ccc2ccccc21)c1ccc(Cl)cc1 (stereo not drawn)
>100 µM

// input: 4 compounds below; output: CI80 on clinical strains of Candida for each
1. OC(Cn1ccnc1)(Cn1ccc2ccccc21)c1ccc(F)cc1 (stereo not drawn)
2. CC(=O)N1CCN(c2ccc(OCC3COC(Cn4ccnc4)(c4ccc(Cl)cc4Cl)O3)cc2)CC1 (stereo not drawn) [Ketoconazole, ketoconazole, reference compound]
3. OC(Cn1ccnc1)(Cn1ccc2ccccc21)c1ccc(Cl)cc1Cl (stereo not drawn)
4. OC(Cn1cncn1)(Cn1ccc2ccccc21)c1ccc(Cl)cc1Cl (stereo not drawn)

Output:
1. 85.27 ± 0.324 µM
2. 0.8 ± 0.02 µM
3. >1 µM
4. 9.2 ± 0.04 µM

====

tested on: Candida lusitaniae (1 strain); assay: Antifungal activity in vitro on clinical strains of Candida: lusitaniae (1 strain); assay type: cell-based; conditions: strain CL980001 (Candida lusitaniae)
Exercise: state measured CI80 on clinical strains of Candida for each of the compounds provided.

Below, each entry is followed by its recorded CI80 on clinical strains of Candida result.
OC(Cn1cncn1)(Cn1ccc2ccccc21)c1ccc(Cl)cc1Cl (stereo not drawn) [compound 78]
<10 nM
OC(Cn1ccnc1)(Cn1ccc2ccccc21)c1ccc(Cl)cc1Cl (stereo not drawn) [compound 75]
300 ± 100 nM
OC(Cn1ccnc1)(Cn1ccc2ccccc21)c1ccc(Br)cc1 (stereo not drawn) [compound 73]
630 ± 10 nM
OC(Cn1ccnc1)(Cn1ccc2ccccc21)c1ccc(F)cc1 (stereo not drawn) [compound 76]
690 ± 80 nM
OC(Cn1ccnc1)(Cn1ccc2ccccc21)c1ccc(Cl)cc1 (stereo not drawn) [compound 74]
630 ± 10 nM

Now, please, on to the next compound.
Task: Item under review: CC(=O)N1CCN(c2ccc(OCC3COC(Cn4ccnc4)(c4ccc(Cl)cc4Cl)O3)cc2)CC1 (stereo not drawn) [Ketoconazole, ketoconazole, reference compound] . Reported CI80 on clinical strains of Candida?
Output: <10 nM

====

system: Aspergillus fumigatus (strain n°AF 980003); assay: Antifungal activity on a clinical strain of Aspergillus fumigatus (Alamar Blue microplate test); type: cell-based; settings: summary of Tables 27 to 40
readout type: activity against Aspergillus fumigatus (in words)

CCn1c(C(c2ccc(F)cc2)n2ccnc2)c(C)c2ccccc21.O=[N+]([O-])O (stereo not drawn) [31n]
most active
CC(c1cn(Cc2ccc(Cl)cc2Cl)c2ccccc12)n1ccnc1.O=C(O)/C=C/C(=O)O (stereo not drawn) [68f]
strong activity
CCn1ccc2cccc(C(c3ccc(F)cc3)n3ccnc3)c21 (stereo not drawn)
most active
Fc1ccc(Cn2c(Cn3ccnc3)cc3ccccc32)cc1
most active
CCN1CCc2cccc(C(c3cccc(Cl)c3)n3ccnc3)c21 (racemic)
strong activity
Fc1cccc(Cn2cc(Cn3ccnc3)c3ccccc32)c1
strong activity

// input: 2 compounds below; output: activity against Aspergillus fumigatus (in words) for each
1. CCN1CCc2cccc(C(c3ccc(F)cc3)n3ccnc3)c21 (stereo not drawn)
2. CC(c1cn(Cc2ccc(F)cc2F)c2ccccc12)n1ccnc1.O=[N+]([O-])O (stereo not drawn) [69n]

Output:
["most active", "strong activity"]

Task: Write down the reported activity against Aspergillus fumigatus (in words) of CCn1c(C(c2ccc(Cl)cc2)n2ccnc2)c(C)c2cc(Br)ccc21 (stereo not drawn) , test system: Aspergillus fumigatus (strain n°AF 980003).
Output: strong activity
